- ASSAY_REMARKS: Acute toxicity, oral, mouse
- Type: in vivo
- PARTICULARS: in vivo, mouse, read-out: DL50

MOLECULE: CC1c2ccccc2CN1NC(=O)c1ccc(Cl)c(S(N)(=O)=O)c1 (stereo not shown)
LD50 at 240 h: > 2500 mg/kg

* * *

- ASSAY_REMARKS: Chronic (subacute) toxicity, 28 days oral, male rat
- Type: in vivo
- PARTICULARS: rat, in vivo; oral, 4 weeks; read-out: well tolerated daily dose (subacute toxicity)

COMPOUND: CC1c2ccccc2CN1NC(=O)c1ccc(Cl)c(S(N)(=O)=O)c1 (stereo not shown) [CM/1]
NOAEL at 672 h: ≥ 40 mg/kg/day
